- assayed-target: SNX27, Q96L92
- method: holdup assay
- Set-up: key: below the threshold = too weak to quantify, mostly under pKd 3.1 to 4
- particulars: plain residues with an end cap or a label only (N-terminal biotin on a linker: ttds)
assay-metric: pKd

binder="SGGKRKETLV [NET1, Q7Z628]" endpoint_value=4.33
binder="NPDALPETLV [ARHGAP6, O43182]" endpoint_value=4.7
binder="DLDEEEDTHL [PODXL, O00592]" endpoint_value=5.15
binder="PPRQRSETQV [HPV82-E6, Q9IR59]" endpoint_value=4.67
binder="FVETQHQTQV [FAT3, Q8TDW7]" endpoint_value=4.53
binder="KLVIKTETTV [RASSF6, Q6ZTQ3]" endpoint_value=5.03
binder="SHSSKGETAV [FZD7, O75084]" endpoint_value=4.8

The measurements presented in this section are drawn from paper PMC9482650.
